Recorded Inhibition (%) Replicate A by entry
target: UniProt:A0A3Q0KMM5; assay: biochemical;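 also: mostly 20 µM final but a few compounds at 5 or 10 µM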
Sequence (A0A3Q0KMM5 27-661 limits assumed): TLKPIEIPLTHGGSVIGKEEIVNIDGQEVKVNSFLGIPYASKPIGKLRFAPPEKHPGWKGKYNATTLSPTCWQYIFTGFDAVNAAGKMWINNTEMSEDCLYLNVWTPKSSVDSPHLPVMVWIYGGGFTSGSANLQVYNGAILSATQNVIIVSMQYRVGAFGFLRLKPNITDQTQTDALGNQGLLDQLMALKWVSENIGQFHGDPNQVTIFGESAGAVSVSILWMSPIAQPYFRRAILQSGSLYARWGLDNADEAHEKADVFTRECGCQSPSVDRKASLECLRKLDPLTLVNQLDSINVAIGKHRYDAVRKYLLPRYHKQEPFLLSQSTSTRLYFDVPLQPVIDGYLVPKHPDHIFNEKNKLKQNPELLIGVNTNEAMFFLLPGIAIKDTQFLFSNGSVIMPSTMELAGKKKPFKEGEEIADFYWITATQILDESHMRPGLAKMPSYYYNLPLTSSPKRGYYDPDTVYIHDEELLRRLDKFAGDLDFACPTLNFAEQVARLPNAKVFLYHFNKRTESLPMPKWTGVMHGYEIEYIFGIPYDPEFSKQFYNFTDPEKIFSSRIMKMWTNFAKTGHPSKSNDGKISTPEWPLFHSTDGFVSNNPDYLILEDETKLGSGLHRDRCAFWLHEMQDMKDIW
Value Kind: Inhibition (%) Replicate A

{"Compound": "O=C(Nc1ccc(Cl)cc1)Nc1ccc(Cl)c(Cl)c1", "Value Kind": "Inhibition (%) Replicate A", "Recorded Result": 84.59}
{"Compound": "N.N.[Cl][Pt][Cl] [Cisplatin, reference compound]", "Value Kind": "Inhibition (%) Replicate A", "Recorded Result": 89.47}
{"Compound": "CCCCC(=O)O[C@H]1CC[C@H]2[C@@H]3CCc4cc(O)ccc4[C@H]3CC[C@]12C", "Value Kind": "Inhibition (%) Replicate A", "Recorded Result": 78.67}
{"Compound": "CC(C)n1cnc2c(NCCc3ccc(O)cc3)nc(-c3csc4ccccc34)nc21", "Value Kind": "Inhibition (%) Replicate A", "Recorded Result": 70.28}
{"Compound": "COc1ccc(C#Cc2ccc3c(c2)O[C@H](CN(C)S(=O)(=O)c2ccccc2F)[C@H](C)CN([C@@H](C)CO)S3(=O)=O)cc1", "Value Kind": "Inhibition (%) Replicate A", "Recorded Result": 63.67}
{"Compound": "CC(C)Oc1ccc(-c2nn([C@@H](C)c3oc4ccc(F)cc4c(=O)c3-c3cccc(F)c3)c3ncnc(N)c23)cc1F", "Value Kind": "Inhibition (%) Replicate A", "Recorded Result": 66.50}
{"Compound": "COc1ccc(C#Cc2ccc3c(c2)O[C@@H](CN(C)S(=O)(=O)c2ccccc2F)[C@@H](C)CN([C@H](C)CO)S3(=O)=O)cc1", "Value Kind": "Inhibition (%) Replicate A", "Recorded Result": 69.23}
{"Compound": "O=C1[C@@H]2[C@H]3CC[C@H](C3)[C@@H]2C(=O)N1C[C@@H]1CCCC[C@H]1CN1CCN(c2nsc3ccccc23)CC1", "Value Kind": "Inhibition (%) Replicate A", "Recorded Result": 79.39}
{"Compound": "O=C(C[C@@H]1C[C@@H]2c3cc(NC(=O)NC4CCCC4)ccc3O[C@@H]2[C@H](CO)O1)NCc1ccc(Cl)cc1", "Value Kind": "Inhibition (%) Replicate A", "Recorded Result": 85.52}
{"Compound": "Brc1cc2c(cc1[C@@H]1Nc3ccccc3[C@@H]3C=CC[C@@H]31)OCO2 [G15, reference compound]", "Value Kind": "Inhibition (%) Replicate A", "Recorded Result": 75.36}
{"Compound": "Cc1cc(Oc2ccc3nc(COc4ccc(CC5SC(=O)NC5=O)cc4)n(C)c3c2)cc(C)c1N (centres unmarked)", "Value Kind": "Inhibition (%) Replicate A", "Recorded Result": 61.34}
{"Compound": "C[C@H](NC(=O)C(C)(C)Oc1ccc(C(F)(F)F)cn1)[C@@H](Cc1ccc(Cl)cc1)c1cccc(C#N)c1", "Value Kind": "Inhibition (%) Replicate A", "Recorded Result": 60.97}
{"Compound": "C/C=C/c1cccc(-c2nc(C(=O)NCc3ccc(OC)cc3)cc3c2[C@@H](CCO)N([S@+]([O-])C(C)(C)C)C3)c1", "Value Kind": "Inhibition (%) Replicate A", "Recorded Result": 65.92}
{"Compound": "CN(Cc1ccc(C(C)(C)C)cc1)Cc1cccc2ccccc12", "Value Kind": "Inhibition (%) Replicate A", "Recorded Result": 64.97}
